For each record, write down the corresponding inhibition.
target: Dual specificity tyrosine-phosphorylation-regulated kinase 1B (Homo sapiens) (UniProt Q9Y463); conditions: at 1 µM;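 note: values are mean percent inhibition of DYRK1B, from the GSK_PKIS set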
Sequence (Q9Y463 whole entry, looked up): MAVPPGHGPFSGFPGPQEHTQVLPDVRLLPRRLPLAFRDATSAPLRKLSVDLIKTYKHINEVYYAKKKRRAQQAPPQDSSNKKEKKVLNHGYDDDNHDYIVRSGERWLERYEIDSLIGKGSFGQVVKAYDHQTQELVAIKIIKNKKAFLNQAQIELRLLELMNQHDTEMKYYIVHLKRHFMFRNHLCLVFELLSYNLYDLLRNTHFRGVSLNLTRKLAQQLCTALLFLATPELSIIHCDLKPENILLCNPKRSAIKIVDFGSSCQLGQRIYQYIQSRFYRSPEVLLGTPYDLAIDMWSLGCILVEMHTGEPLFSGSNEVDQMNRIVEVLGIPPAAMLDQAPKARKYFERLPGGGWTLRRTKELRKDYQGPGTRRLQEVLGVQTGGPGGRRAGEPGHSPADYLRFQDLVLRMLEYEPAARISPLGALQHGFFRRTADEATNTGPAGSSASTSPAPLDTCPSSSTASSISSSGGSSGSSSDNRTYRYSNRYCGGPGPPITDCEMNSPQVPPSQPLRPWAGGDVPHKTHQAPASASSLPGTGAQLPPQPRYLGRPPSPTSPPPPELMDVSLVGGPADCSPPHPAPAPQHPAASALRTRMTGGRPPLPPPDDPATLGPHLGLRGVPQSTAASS
// unit must come after the numeric part

// worked examples, inhibition included
> print(dat)
                                item.smiles  result
1  CNC(=O)c1ncccc1Nc1nc(Nc2cc3c(cc2OC)CCCN3C(=O)CN(C)C)nc2[nH]ccc12   8.48%
2  CS(=O)(=O)CCNCc1ccc(-c2ccc3ncnc(Nc4ccc(OCc5ccccc5)cc4)c3c2)o1   1.88%
3  CS(=O)(=O)Nc1ccc(-c2ccc3c(NC(=O)C4CC4)n[nH]c3c2)cc1   2.94%

Would you mind listing inhibition for each of the following compounds?
1. Cc1nnc(-c2cccc(-c3ccc(C(=O)NCC4CC4)cc3)c2)o1
2. COc1cc2c(cc1Nc1nc(Nc3cccc(F)c3C(N)=O)c3cc[nH]c3n1)N(C(=O)CN1CCN(C(C)C)CC1)CC2
3. OCCCNc1nccc(-c2c(-c3ccc(F)cc3)nn3cc(C(F)(F)F)ccc23)n1
4. COc1cccc(-n2ncc3c(N/N=C/c4ccc(C(=O)NCCN(C)C)cc4)ncnc32)c1
5. COc1cccc(Nc2nccc(-c3cnn4ncccc34)n2)c1

### Response
1. 1.06%
2. 9.06%
3. 3.86%
4. 57.1%
5. 90%

// inhibition value for CCS(=O)(=O)c1ccc(OC)c(Nc2ncc(-c3cccc(F)c3)o2)c1 : 12.2%

====

Would you mind telling me the reported inhibition of each entry?
biological target: Serine/threonine-protein kinase PAK 2 (Homo sapiens) (UniProt Q13177); conditions: at 1 µM;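 note: reported values are mean inhibition of PAK2, averaged over measurements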
Sequence (Q13177 whole entry): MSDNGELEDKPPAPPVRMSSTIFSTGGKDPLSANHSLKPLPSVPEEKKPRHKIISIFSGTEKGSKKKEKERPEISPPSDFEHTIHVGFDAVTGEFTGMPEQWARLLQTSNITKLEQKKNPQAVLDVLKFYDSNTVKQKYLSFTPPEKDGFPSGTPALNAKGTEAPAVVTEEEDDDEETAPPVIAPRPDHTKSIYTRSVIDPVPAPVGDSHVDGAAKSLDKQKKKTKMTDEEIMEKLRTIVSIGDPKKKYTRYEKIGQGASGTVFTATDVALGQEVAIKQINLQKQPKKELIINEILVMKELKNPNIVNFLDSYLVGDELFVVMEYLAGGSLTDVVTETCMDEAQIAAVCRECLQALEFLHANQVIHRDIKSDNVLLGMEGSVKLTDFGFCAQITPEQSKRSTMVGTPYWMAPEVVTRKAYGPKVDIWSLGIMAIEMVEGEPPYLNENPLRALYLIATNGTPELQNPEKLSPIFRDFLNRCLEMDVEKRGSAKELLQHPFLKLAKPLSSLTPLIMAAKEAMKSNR
Give bare numbers, in %.

Observe how each entry below is paired with its result.
> print(dat)
                                    compound  units.text  numeric.result
 1  CN1CCC(n2cnc(-c3ccc(F)cc3)c2-c2ccnc(NCCO)n2)CC1           %            2.52
 2        O=C1Nc2ccccc2/C1=C1\CCc2cc(O)ccc21           %            3.05
 3    Cc1ccc(-c2cc3c(NC(=O)C4CC4)ncnc3o2)cc1           %            1.97
 4  CC(C)c1ccc(-c2cc(-c3c[nH]nc3-c3ccccn3)ccn2)cc1           %           -0.21
 5           CNC(=O)c1cncc(/C=C/c2ccccc2C)c1           %            2.02
 6  Cc1nnc(-c2cccc(-c3ccc(C(=O)NCC4CC4)cc3)c2)o1           %            3.86
 7  CS(=O)(=O)CCNCc1ccc(-c2ccc3ncnc(Nc4ccc(OCc5ccccc5)cc4)c3c2)o1           %           -0.94
 8  CC1=C(C(=O)Nc2ccc3[nH]ncc3c2)C(c2ccc(F)cc2)N=C(c2ccc(C(F)(F)F)nc2)N1 (centres undefined)           %            0.19
 9  Cc1cc(O)cc(C)c1/C=C/c1cncc(C(=O)OC(C)(C)C)c1           %            0.96
10  CC1=C(C(=O)Nc2ccc3[nH]nc(C)c3c2)C(c2ccc(C(F)(F)F)cc2)CC(=O)N1 (centres undefined)           %            1.55

Give measured inhibition for every item shown.
1. CS(=O)(=O)CCNCc1ccc(-c2ccc3ncnc(Nc4ccc(OCc5cccc(C(F)(F)F)c5)cc4)c3c2)o1
2. COc1ccccc1-c1cc(/C=C2\C(=O)Nc3ncc(Br)cc32)cc(Br)c1O
3. COC(=O)Nc1nc2cc(Oc3ccc(NC(=O)Nc4ccccc4)cc3)ccc2[nH]1
4. Fc1cccc(COc2ccc(Nc3ncncc3C#Cc3ccccc3)cc2Cl)c1
5. CCOc1ccc2c(-c3ccnc(Nc4cc(OC)cc(C(F)(F)F)c4)n3)cnn2n1

### Response
1. 3.12
2. 2.48
3. 0.63
4. 2.71
5. 0.03

Dear colleague, could you send me inhibition for each of the items below? Thanks.
1. CCS(=O)(=O)c1ccc(OC)c(Nc2ncc(-c3cccc(C(C)=O)c3)o2)c1
2. CCn1c(-c2nonc2N)nc2cncc(C(=O)NCCNC)c21
3. COc1c(C(N)=O)cc(-c2ccc(Cl)cc2)cc1-c1ccc(S(N)(=O)=O)cc1
4. Fc1ccc(Nc2nccc(-c3c(-c4ccc(C(F)(F)F)cc4)nn4ncccc34)n2)cc1F
5. NS(=O)(=O)c1cccc(N/C=C2\C(=O)Nc3ccccc32)c1
6. CC1(C)CC(n2cnc(-c3ccc(F)cc3)c2-c2ccnc(N)n2)CC(C)(C)N1
7. O=C(O[C@H]1CN[C@H](C#Cc2cc3ncnc(Nc4ccc5c(cnn5Cc5ccccc5)c4)c3s2)C1)N1CCOCC1
8. NS(=O)(=O)c1ccc(N/N=C2\C(=O)Nc3ccc(C(=O)NCc4ccncc4)cc32)cc1

### Response
1: 1.36; 2: 2.75; 3: 2.55; 4: 2.47; 5: 2.04; 6: 0.36; 7: -1.35; 8: 2.49

# batch: return inhibition for each of the 4 compounds below
1. COc1ccc(-c2nn3ncccc3c2-c2ccnc(Nc3ccc(F)c(F)c3)n2)cc1
2. CCCNc1cccc(-n2ncc3c(N/N=C/c4ccncc4)ncnc32)c1
3. FC(F)(F)CNc1nccc(-c2cnn3ncccc23)n1
4. CNC(=O)c1sc(-n2cnc3cc(OC)c(OC)cc32)cc1OCc1ccccc1C(F)(F)F

### Response
0.93
-0.31
-0.87
0.57

Can you give me inhibition for all of these, one by one?
1. COc1cc(N2CCN(C(C)C)CC2)ccc1Nc1nc(Nc2cccc3ncccc23)c2cc[nH]c2n1
2. CS(=O)(=O)Nc1ccc(-c2cc(-c3ccccc3)cc(C(N)=O)c2N)cc1
3. CS(=O)(=O)Nc1ccc(-c2ccc3c(NC(=O)C4CC4)n[nH]c3c2)cc1
4. c1ccc(-c2n[nH]cc2-c2ccnc(-c3ccc(OCCn4ccnc4)cc3)c2)nc1
5. CN(c1ccc(NC(=O)NCCN2CCOCC2)cc1)c1ccnc(Nc2ccc(CS(C)(=O)=O)cc2)n1
6. O=C(O[C@H]1CN[C@H](C#Cc2cc3ncnc(Nc4ccc5c(ccn5Cc5cc(F)ccc5F)c4)c3s2)C1)N1CCOCC1
7. Cc1c2ccc(N(C)c3ccnc(Nc4cccc(S(N)(=O)=O)c4)n3)cc2nn1C

### Response
[-0.27, -0.16, 1.36, 0.37, 1.58, 2.48, 3.15]

====

biological target: Serine/threonine-protein kinase D1 (Homo sapiens) (UniProt Q15139); details: at 0.1 µM;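 note: values given as mean inhibition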
Sequence (Q15139 whole entry): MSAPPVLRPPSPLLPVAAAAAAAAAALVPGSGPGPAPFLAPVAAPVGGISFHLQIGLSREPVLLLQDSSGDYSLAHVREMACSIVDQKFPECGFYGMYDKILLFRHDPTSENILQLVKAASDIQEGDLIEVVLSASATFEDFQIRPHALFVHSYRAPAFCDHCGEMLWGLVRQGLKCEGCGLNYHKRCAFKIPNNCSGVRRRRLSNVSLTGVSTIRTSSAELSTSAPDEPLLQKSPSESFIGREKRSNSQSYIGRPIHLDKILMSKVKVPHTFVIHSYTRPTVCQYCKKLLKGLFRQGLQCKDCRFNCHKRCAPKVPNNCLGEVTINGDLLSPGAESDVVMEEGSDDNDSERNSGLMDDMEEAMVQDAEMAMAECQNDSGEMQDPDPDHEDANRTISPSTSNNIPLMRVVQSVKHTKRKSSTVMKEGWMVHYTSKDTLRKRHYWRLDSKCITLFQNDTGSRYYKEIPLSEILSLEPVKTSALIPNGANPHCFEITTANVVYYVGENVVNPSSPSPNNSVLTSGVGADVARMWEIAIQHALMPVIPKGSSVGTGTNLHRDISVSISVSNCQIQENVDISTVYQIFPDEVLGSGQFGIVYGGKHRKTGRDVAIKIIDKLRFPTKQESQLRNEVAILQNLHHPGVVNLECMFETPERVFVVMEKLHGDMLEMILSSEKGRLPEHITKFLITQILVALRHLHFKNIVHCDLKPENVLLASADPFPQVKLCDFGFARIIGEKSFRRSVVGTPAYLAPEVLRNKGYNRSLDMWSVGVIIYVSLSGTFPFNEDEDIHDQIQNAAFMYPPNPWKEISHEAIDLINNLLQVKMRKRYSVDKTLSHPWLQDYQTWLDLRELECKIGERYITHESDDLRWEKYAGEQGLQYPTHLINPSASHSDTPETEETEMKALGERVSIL
Observable: inhibition (%)
Answers are plain numbers, in %.

Before answering, review these 6 worked examples.
> print(dat)
                                item.smiles  numeric.result
1  Cc1c2ccc(N(C)c3ccnc(Nc4cccc(S(N)(=O)=O)c4)n3)cc2nn1C           -0.64
2  OCCCNc1nccc(-c2c(-c3ccc(F)cc3)nn3cc(C(F)(F)F)ccc23)n1            1.85
3  CCCNc1cccc(-n2ncc3c(N/N=C/c4ccncc4)ncnc32)c1            2.19
4  CN(c1ccc(NC(=O)NCCN2CCOCC2)cc1)c1ccnc(Nc2ccc(CS(C)(=O)=O)cc2)n1            2.05
5  COc1ccc2ncn(-c3cc(O[C@H](C)c4ccccc4C(F)(F)F)c(C(N)=O)s3)c2c1           -0.46
6  O=C(O[C@H]1CN[C@H](C#Cc2cc3ncnc(Nc4ccc5c(cnn5Cc5ccccc5)c4)c3s2)C1)N1CCOCC1            2.57

Please state inhibition for every molecule in the list that follows.
1. NS(=O)(=O)c1cccc(N/C=C2\C(=O)Nc3ccccc32)c1
2. Cc1ccc(-c2cc3c(NC(=O)C4CC4)ncnc3o2)cc1
3. CS(=O)(=O)CCNCc1ccc(-c2ccc3ncnc(Nc4ccc(OCc5cccc(C(F)(F)F)c5)cc4)c3c2)o1

### Response
1. 3.72
2. 3.45
3. 4.62

====

test system: Receptor-type tyrosine-protein kinase FLT3 (Homo sapiens), P36888 [D835Y]; conditions: at 0.1 µM
Observable: inhibition

Here are 5 compounds. What values of inhibition were reported for them?
1. COc1cc(N2CCN(C(C)C)CC2)ccc1Nc1nc(Nc2cccc(F)c2C(=O)O)c2cc[nH]c2n1
2. c1ccc(-c2n[nH]cc2-c2ccnc(-c3ccc(OCCn4ccnc4)cc3)c2)nc1
3. NS(=O)(=O)c1cccc(N/C=C2\C(=O)Nc3ccccc32)c1
4. CC(C)c1ccc(-c2cc(-c3c[nH]nc3-c3ccccn3)ccn2)cc1
5. O=C(O[C@H]1CN[C@H](C#Cc2cc3ncnc(Nc4ccc(OCc5cccc(F)c5)c(Cl)c4)c3s2)C1)N1CCOCC1

### Response
["0.23%", "2.71%", "1.52%", "1.43%", "-1.46%"]
